Reference source: paper PMC5538625

molecular target: BAM3 extracellular (LRR) domain (30–651) (Arabidopsis thaliana); construct: azurocidin signal peptide (N); made in house; host or cells: Trichoplusia ni Tnao38 insect cells (baculovirus, secreted); test: biochemical; assay type: binding
Sequence (O65440 30-651): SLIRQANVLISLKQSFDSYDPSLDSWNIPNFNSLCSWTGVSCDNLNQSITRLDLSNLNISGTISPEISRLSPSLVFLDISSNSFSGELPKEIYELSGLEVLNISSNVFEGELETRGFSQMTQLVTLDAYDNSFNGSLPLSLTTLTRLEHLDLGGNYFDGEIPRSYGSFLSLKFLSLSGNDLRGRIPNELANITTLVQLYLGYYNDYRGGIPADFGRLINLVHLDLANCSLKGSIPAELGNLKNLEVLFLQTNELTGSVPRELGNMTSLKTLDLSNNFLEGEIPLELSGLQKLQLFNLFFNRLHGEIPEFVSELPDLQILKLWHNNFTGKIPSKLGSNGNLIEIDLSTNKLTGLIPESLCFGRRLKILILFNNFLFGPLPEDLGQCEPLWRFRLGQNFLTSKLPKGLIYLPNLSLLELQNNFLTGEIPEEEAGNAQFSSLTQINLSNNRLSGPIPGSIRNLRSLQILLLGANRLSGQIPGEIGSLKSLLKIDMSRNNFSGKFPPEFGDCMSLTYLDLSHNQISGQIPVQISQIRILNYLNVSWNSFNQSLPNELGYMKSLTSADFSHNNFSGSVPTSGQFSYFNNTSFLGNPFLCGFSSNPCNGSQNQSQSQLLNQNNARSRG
pKd: −log10 of the molar value. Where no end group is shown, it is not given here.
outcome measure: pKd

RRVRRGSDPIHN [CLE45]; 6.94
